# Tested on: α-isomaltosylglucosaccharide-forming enzyme
# method: Action on saccharides as substrates (TLC), enzyme of C9 strain
# Format: biochemical, Bacillus globisporus C9 strain
# Parameters: key: −: it showed no change; +: it showed a slight reduction of the color spot of the substrate and the formation of other reaction product; ++: it showed a high reduction of the color spot of the substrate and the formation of other reaction product; +++: it showed a substantial disappearance of the substrate spot and the formation of other reaction product
# details: two units/g substrate, substrate 2% (w/v), 30° C., pH 6.0, 24 hours
measured.attribute: Enzymatic action, Enzyme of C9 strain

Previously resolved entries follow.
OC[C@H]1O[C@H](OC[C@H]2OC(O)[C@H](O)[C@@H](O)[C@@H]2O)[C@H](O)[C@@H](O)[C@@H]1O (stereo partly drawn)    −
OC[C@H]1O[C@H](O[C@H]2O[C@H](CO)[C@@H](O)[C@H](O)[C@H]2O)[C@H](O)[C@@H](O)[C@@H]1O    −
OC[C@H]1O[C@@H](O[C@H]2[C@H](O)[C@@H](O)C(O)O[C@@H]2CO)[C@H](O)[C@@H](O)[C@H]1O (stereo partly drawn)    −
OC[C@H]1O[C@H](O[C@H]2[C@H](O)[C@@H](CO)OC(O)[C@@H]2O)[C@H](O)[C@@H](O)[C@@H]1O (stereo partly drawn)    +
OC[C@@H](O)[C@@H](O[C@H]1O[C@H](CO)[C@@H](O)[C@H](O)[C@H]1O)[C@H](O)[C@@H](O)CO    −

Continue with the compound presented below.
I'd like to know its Enzymatic action, Enzyme of C9 strain. The compound in question is OC[C@H]1O[C@H](O[C@H]2C(O)O[C@H](CO)[C@@H](O)[C@@H]2O)[C@H](O)[C@@H](O)[C@@H]1O (stereo partly drawn)
+

---

Measured Relative activity (%), listed per entry.
# System: α-isomaltosylglucosaccharide-forming enzyme
# method: Influence of metal ions on α-isomaltosylglucosaccharide-forming enzyme activity (N75 strain)
# Assay type: biochemical, Bacillus globisporus N75 strain
# details: in the presence of 1 mM of each metal-ion; None = 100
Express it in %; write the number only.

Here's what some known entries look like.
[Ca+2]    108
[Co+2]    93
[Ba+2]    84
[Pb+2]    86
[Fe+2]    82

// query Relative activity (%) value for entry `[Hg+2]`
1

How about `[Zn+2]` ?
82

And `[Sr+2]` ?
85

Same for `O=C(O)CN(CCN(CC(=O)O)CC(=O)O)CC(=O)O`
35

Same read-out for `[Mn+2]` ?
120

Record: `[Cu+2]`
7

---

Recorded measurements of Relative activity (%), one per entry
# Test system: α-isomaltosyl-transferring enzyme
# method: Influence of metal ions on α-isomaltosyl-transferring enzyme activity (C9 strain)
# Format: biochemical, Bacillus globisporus C9 strain
# details: in the presence of 1 mM of each metal-ion; None = 100
Just the number in %, nothing appended.

Use these answered entries as a reference point.
[Cu+2]    57
[Zn+2]    88
[Co+2]    103

Please report the recorded Relative activity (%) for `[Ni+2]` .
102

Next: `[Ba+2]`
102

---

# Tested on: α-isomaltosylglucosaccharide-forming enzyme
# method: Action on saccharides as substrates (TLC), enzyme of A19 strain
# Type: biochemical, Arthrobacter globiformis A19 strain
# Design: key: −: it showed no change; +: it showed a slight reduction of the color spot of the substrate and the formation of other reaction product; ++: it showed a high reduction of the color spot of the substrate and the formation of other reaction product; +++: it showed a substantial disappearance of the substrate spot and the formation of other reaction product
# details: two units/g substrate, substrate 2% (w/v), 30° C., pH 8.4, 24 hours
measured.attribute: Enzymatic action, Enzyme of A19 strain

OC[C@H]1O[C@H](O[C@H]2[C@H](O)[C@@H](O)[C@@H](O[C@H]3[C@H](O)[C@@H](O)[C@@H](O[C@H]4[C@H](O)[C@@H](O)C(O)O[C@@H]4CO)O[C@@H]3CO)O[C@@H]2CO)[C@H](O)[C@@H](O)[C@@H]1O (some centres unmarked)    +++
OC[C@H]1O[C@H](O[C@H]2C(O)O[C@H](CO)[C@@H](O)[C@@H]2O)[C@H](O)[C@@H](O)[C@@H]1O (some centres unmarked)    +
OC[C@H]1O[C@H](OC[C@H]2O[C@H](OC[C@H]3OC(O)[C@H](O)[C@@H](O)[C@@H]3O)[C@H](O)[C@@H](O)[C@@H]2O)[C@H](O)[C@@H](O)[C@@H]1O (some centres unmarked)    −
OC[C@H]1O[C@H](OC[C@H]2OC(O)[C@H](O)[C@@H](O)[C@@H]2O)[C@H](O)[C@@H](O)[C@@H]1O (some centres unmarked)    −

Kindly review the next compound as well.
// query Enzymatic action, Enzyme of A19 strain value for entry OC[C@H]1O[C@H](O[C@H]2[C@H](O)[C@@H](O)[C@@H](OC[C@H]3OC(O)[C@H](O)[C@@H](O)[C@@H]3O)O[C@@H]2CO)[C@H](O)[C@@H](O)[C@@H]1O (some centres unmarked)
++

---

# Tested on: α-isomaltosylglucosaccharide-forming enzyme
# method: Transfer-acceptor specificity, enzyme of N75 strain
# Type: biochemical, Bacillus globisporus N75 strain
# Design: key: −: no saccharide-transferred product was detected through transfer reaction to acceptor; ±: a saccharide-transferred product was detected in an amount less than one percent through transfer reaction to acceptor; +: a saccharide-transferred product was detected in an amount over one percent but less than 10% through transfer reaction to acceptor; ++: a saccharide-transferred product was detected in an amount over ten percent through transfer reaction to acceptor
# details: acceptor 1.6%, PINE-DEX #100 donor 4%, one unit/g donor, 30° C., pH 6.0, 24 hours
measured.attribute: Product of transferring reaction, Enzyme of N75 strain

OC[C@H]1O[C@@H]2O[C@H]3[C@H](O)[C@@H](O)[C@@H](O[C@H]4[C@H](O)[C@@H](O)[C@@H](O[C@H]5[C@H](O)[C@@H](O)[C@@H](O[C@H]6[C@H](O)[C@@H](O)[C@@H](O[C@H]7[C@H](O)[C@@H](O)[C@@H](O[C@H]1[C@H](O)[C@H]2O)O[C@@H]7CO)O[C@@H]6CO)O[C@@H]5CO)O[C@@H]4CO)O[C@@H]3CO [α-Cyclodextrin, α-cyclodextrin]    −
OC[C@H]1O[C@@H]2O[C@H]3[C@H](O)[C@@H](O)[C@@H](O[C@H]4[C@H](O)[C@@H](O)[C@@H](O[C@H]5[C@H](O)[C@@H](O)[C@@H](O[C@H]6[C@H](O)[C@@H](O)[C@@H](O[C@H]7[C@H](O)[C@@H](O)[C@@H](O[C@H]8[C@H](O)[C@@H](O)[C@@H](O[C@H]9[C@H](O)[C@@H](O)[C@@H](O[C@H]1[C@H](O)[C@H]2O)O[C@@H]9CO)O[C@@H]8CO)O[C@@H]7CO)O[C@@H]6CO)O[C@@H]5CO)O[C@@H]4CO)O[C@@H]3CO [γ-Cyclodextrin, γ-cyclodextrin]    −

---

# System: α-isomaltosyl-transferring enzyme
# method: Influence of metal ions on α-isomaltosyl-transferring enzyme activity (S1 strain)
# Format: biochemical, Arthrobacter ramosus S1 strain
# details: 1 mM; Table 21
measured.attribute: effect on the enzyme activity, in words

[Ca+2]    neither activated
O=C(O)CN(CCN(CC(=O)O)CC(=O)O)CC(=O)O    neither activated

---

# Test system: α-isomaltosylglucosaccharide-forming enzyme
# method: Influence of metal ions on α-isomaltosylglucosaccharide-forming enzyme activity (C9 strain)
# Type: biochemical, Bacillus globisporus C9 strain
# details: in the presence of 1 mM of each metal-ion; None = 100
Listing of recorded Relative activity (%) by entry.
Express it in %; write the number only.

[Ba+2]    65

Query (compound): `[Ca+2]` ; field requested: Relative activity (%)
115

Likewise for `[Cu+2]` ?
15

What do we get for `[Co+2]` ?
100

Same question for `[Mn+2]` please.
111

Also `[Zn+2]` , if possible.
92

Ok, now `[Sr+2]`
80

Thanks! And `[Hg+2]` ?
4

Continue with `[Pb+2]`
103

Please give the result for `O=C(O)CN(CCN(CC(=O)O)CC(=O)O)CC(=O)O` too.
20

---

# System: α-isomaltosylglucosaccharide-forming enzyme
# method: Action on saccharides as substrates (TLC), enzyme of A19 strain
# Assay type: biochemical, Arthrobacter globiformis A19 strain
# Set-up: key: −: it showed no change; +: it showed a slight reduction of the color spot of the substrate and the formation of other reaction product; ++: it showed a high reduction of the color spot of the substrate and the formation of other reaction product; +++: it showed a substantial disappearance of the substrate spot and the formation of other reaction product
# details: two units/g substrate, substrate 2% (w/v), 30° C., pH 8.4, 24 hours
measured.attribute: Enzymatic action, Enzyme of A19 strain

OC[C@H]1O[C@@H](OC[C@H]2OC(O)[C@H](O)[C@@H](O)[C@@H]2O)[C@H](O)[C@@H](O)[C@@H]1O (some centres unmarked)    −
O=C[C@H](O)[C@@H](O)[C@H](O[C@@H]1O[C@H](CO)[C@@H](O)[C@H](O)[C@H]1O)[C@H](O)CO    −
OC[C@H]1O[C@H](OC[C@H]2O[C@H](O[C@H]3[C@H](O)[C@@H](O)C(O)O[C@@H]3CO)[C@H](O)[C@@H](O)[C@@H]2O)[C@H](O)[C@@H](O)[C@@H]1O (some centres unmarked)    −
OC[C@@H](O)[C@@H](O[C@H]1O[C@H](CO)[C@@H](O[C@H]2O[C@H](CO)[C@@H](O)[C@H](O)[C@H]2O)[C@H](O)[C@H]1O)[C@H](O)[C@@H](O)CO    +

// below: Enzymatic action, Enzyme of A19 strain requested for another compound
Find Enzymatic action, Enzyme of A19 strain (α-isomaltosylglucosaccharide-forming enzyme) for the entry `OC[C@H]1O[C@H](O[C@H]2O[C@H](CO)[C@@H](O)[C@H](O)[C@H]2O[C@H]2O[C@H](CO)[C@@H](O)[C@H](O)[C@H]2O)[C@H](O)[C@@H](O)[C@@H]1O`
−
